assay: Binding affinity to beta cyclodextrin
reported.property: log Ks
Keep the answer to the number alone.

Can you look up the measured log Ks of Cc1cccc(N(C)C(=S)Oc2ccc3ccccc3c2)c1 [TOLNAFTATE] for me?
3.83

Can you look up the measured log Ks of CC(=O)Oc1ccc([N+](=O)[O-])cc1 [4-NITROPHENYL ACETATE] for me?
2.13

Can you look up the measured log Ks of OC1CCCC1 for me?
2.08

Can you look up the measured log Ks of CCCc1ccc(OC(C)=O)cc1 for me?
3.15

Can you look up the measured log Ks of N#Cc1ccccc1 for me?
2.23

Can you look up the measured log Ks of Cc1ccc(Cl)c(Nc2ccccc2C(=O)O)c1Cl for me?
2.67

Can you look up the measured log Ks of CC1=CC(=O)c2ccccc2C1=O for me?
2.27

Can you look up the measured log Ks of CC(=O)c1ccc(O)cc1 [4-HYDROXYACETOPHENONE] for me?
2.18

Can you look up the measured log Ks of c1ccc2ncccc2c1 for me?
2.12

Can you look up the measured log Ks of CCNc1ccccc1 for me?
2.34

Can you look up the measured log Ks of Brc1ccc(Br)cc1 for me?
2.97

Can you look up the measured log Ks of CC(=O)Oc1ccc(C(C)C)cc1 for me?
2.88

Can you look up the measured log Ks of OCCCCCCO for me?
1.69

Can you look up the measured log Ks of Oc1cccc(F)c1 for me?
1.7

====

For each entry below, report its log Ks value.
test: Binding affinity to beta cyclodextrin
Keep the answer to the number alone.

Can you look up the measured log Ks of CC(C)=O [ACETONE] for me?
0.42

Can you look up the measured log Ks of Cc1ccc(O)cc1 [p-CRESOL] for me?
2.4

Can you look up the measured log Ks of O=C(O)CCC(=O)c1ccc(-c2ccccc2)cc1 [FENBUFEN] for me?
2.63

Can you look up the measured log Ks of O=[N+]([O-])c1ccc(O)cc1 [P-NITROPHENOL] for me?
2.39

Can you look up the measured log Ks of CCCCc1cccc(O)c1 for me?
3.76

Can you look up the measured log Ks of O=Cc1ccc(O)cc1 [4-HYDROXYBENZALDEHYDE] for me?
1.75

Can you look up the measured log Ks of CCOC(=O)c1ccc(O)cc1 [ETHYLPARABEN] for me?
3.01

Can you look up the measured log Ks of CCCCCc1ccc(O)cc1 for me?
4.19

Can you look up the measured log Ks of c1ccc2scnc2c1 [BENZO[D]THIAZOLE] for me?
2.38

Can you look up the measured log Ks of c1ccc2c(c1)Nc1ccccc1S2 [PHENOTHIAZINE] for me?
2.73

Can you look up the measured log Ks of O=C(O)/C=C/c1ccc(O)cc1 [COUMARIC ACID] for me?
2.83

Can you look up the measured log Ks of Fc1ccccc1 [FLUOROBENZENE] for me?
1.96

Can you look up the measured log Ks of NS(=O)(=O)c1cc2c(cc1Cl)NCNS2(=O)=O [HYDROCHLOROTHIAZIDE] for me?
1.76

Can you look up the measured log Ks of Nc1ccc(-c2ccc(N)cc2)cc1 [BENZIDINE] for me?
3.35

Can you look up the measured log Ks of C[C@]12CCC(=O)C=C1CC[C@@H]1[C@@H]2[C@@H](O)C[C@@]2(C)[C@H]1CC[C@]2(O)C(=O)CO [HYDROCORTISONE] for me?
3.6

Can you look up the measured log Ks of ClC(Cl)(Cl)Cl [CARBON TETRACHLORIDE] for me?
2.2

Can you look up the measured log Ks of CC(=O)Oc1cccc(CC(C)C)c1 for me?
3.83

Can you look up the measured log Ks of CCc1ccc(O)cc1 for me?
2.69

Can you look up the measured log Ks of CCCc1cccc(O)c1 for me?
3.28

Can you look up the measured log Ks of Oc1ccc(O)cc1 [HYDROQUINONE] for me?
2.05

Can you look up the measured log Ks of Cc1ccc(/C=C/C(=O)O)cc1 for me?
2.65

Can you look up the measured log Ks of CCCCc1cccc(OC(C)=O)c1 for me?
3.66

Can you look up the measured log Ks of CC(=O)Oc1ccc(I)cc1 for me?
3

Can you look up the measured log Ks of Oc1cccc(I)c1 for me?
2.93

Can you look up the measured log Ks of c1ccc2sccc2c1 [BENZOTHIOPHENE] for me?
3.23

Can you look up the measured log Ks of CCCCc1ccc(OC(C)=O)cc1 for me?
3.62

Can you look up the measured log Ks of OCc1ccccc1 [BENZYL ALCOHOL] for me?
1.71

Can you look up the measured log Ks of OC1CCCCCC1 [CYCLOHEPTANOL] for me?
3.23

====

assay: Binding affinity to beta cyclodextrin
reported.property: log Ks
Keep the answer to the number alone.

Can you look up the measured log Ks of CCCCOC(=O)c1ccc(N)cc1 for me?
3.19

Can you look up the measured log Ks of OCCO for me?
-0.19

Can you look up the measured log Ks of CC(=O)Oc1ccc(C(C)(C)C)cc1 for me?
3.85

Can you look up the measured log Ks of CCCc1cccc(OC(C)=O)c1 for me?
3.28

Can you look up the measured log Ks of COC1=CC(=O)C[C@@H](C)[C@]12Oc1c(Cl)c(OC)cc(OC)c1C2=O for me?
1.47

Can you look up the measured log Ks of C[C@]12C=CC(=O)C=C1CC[C@H]1[C@@H]3C[C@@H](O)[C@](O)(C(=O)CO)[C@@]3(C)C[C@H](O)[C@@]12F for me?
3.37

====

assay: Binding affinity to beta cyclodextrin
For each entry below, report its log Ks value.
Keep the answer to the number alone.

Can you look up the measured log Ks of COc1ccc(OC(C)=O)cc1 for me?
2.45

Can you look up the measured log Ks of CCC(C)CO (configuration not stated) for me?
2.08

Can you look up the measured log Ks of CO for me?
-0.49

Can you look up the measured log Ks of c1ccc2nc3ccccc3nc2c1 for me?
2.41

Can you look up the measured log Ks of c1ccccc1 for me?
2.23

Can you look up the measured log Ks of CN1C(=O)NC(=O)C(C)(C2=CCCCC2)C1=O (configuration not stated) [HEXOBARBITAL] for me?
3.08

Can you look up the measured log Ks of c1ccc2c(c1)Cc1ccccc1O2 for me?
2.71

====

assay: Binding affinity to beta cyclodextrin
For each entry below, report its log Ks value.

Can you look up the measured log Ks of CCCc1ccc(O)cc1 for me?
3.55

Can you look up the measured log Ks of CCC1(c2ccccc2)C(=O)NC(=O)N(C)C1=O (centres undefined) for me?
3.16

Can you look up the measured log Ks of O=C(O)c1ccc(O)cc1 for me?
2.2

Can you look up the measured log Ks of CN1CCN=C(c2ccccc2)c2cc(Cl)ccc21 for me?
2.4

Can you look up the measured log Ks of CCC(C)(C)c1ccc(O)cc1 for me?
4.7

Can you look up the measured log Ks of c1ccc2c(c1)[nH]c1ccccc12 for me?
2.44

Can you look up the measured log Ks of CCOc1cccc(OC(C)=O)c1 for me?
2.49

Can you look up the measured log Ks of CCC(C)(C)O [AMYLENE HYDRATE] for me?
1.91

Can you look up the measured log Ks of O=C(O)/C=C/c1cccc(O)c1 for me?
2.56

Can you look up the measured log Ks of CCC(=O)c1cccc(O)c1 for me?
2.61

Can you look up the measured log Ks of CCC(O)CC for me?
1.35

Can you look up the measured log Ks of CC(=O)Oc1cccc(C(C)C)c1 for me?
3.36

Can you look up the measured log Ks of CC(=O)Oc1cccc(C)c1 for me?
2.21

Can you look up the measured log Ks of CCCCC(C)O (centres undefined) for me?
1.98

====

assay: Binding affinity to beta cyclodextrin
For each entry below, report its log Ks value.
Keep the answer to the number alone.

Can you look up the measured log Ks of CC(C(=O)O)c1ccc(-c2ccccc2)c(F)c1 (configuration not stated) [FLURBIPROFEN] for me?
3.69

Can you look up the measured log Ks of ClCc1ccccc1 [(CHLOROMETHYL)BENZENE] for me?
2.45

Can you look up the measured log Ks of c1ccc2c(c1)Nc1ccccc1O2 [PHENOXAZINE] for me?
2.69

Can you look up the measured log Ks of CN1C(=O)CN=C(c2ccccc2F)c2cc(Cl)ccc21 [FLUDIAZEPAM] for me?
2.33

Can you look up the measured log Ks of Oc1cccc(Br)c1 for me?
2.51

Can you look up the measured log Ks of O=C1CN=C(c2ccccc2)c2cc([N+](=O)[O-])ccc2N1 [NITRAZEPAM] for me?
1.97

Can you look up the measured log Ks of CCc1cccc(OC(C)=O)c1 for me?
2.68

Can you look up the measured log Ks of Cc1ccc(C)cc1 [P-XYLENE] for me?
2.38

Can you look up the measured log Ks of CCc1ccc(OC(C)=O)cc1 for me?
2.83

Can you look up the measured log Ks of C[C@@H]1C[C@H]2[C@@H]3C[C@H](F)C4=CC(=O)C=C[C@]4(C)[C@H]3[C@@H](O)C[C@]2(C)[C@@]1(O)C(=O)CO [PARAMETHASONE] for me?
3.4

Can you look up the measured log Ks of Oc1ccc(I)cc1 for me?
2.98

Can you look up the measured log Ks of c1ccc2c(c1)Sc1ccccc1S2 for me?
3.57
